collision cross section in nitrogen reference
test-summary: collision cross section in nitrogen (drift tube, single-field); higher = larger gas-phase ion size;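 also: chemical standards at 10 µM analysed by drift tube IMS-QTOF MS in about 3.95 torr nitrogen, mean of duplicate injections differing ≤1%, mass error below 10 ppm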
condition-details: ion type: [M-H]; ion source: ESI; ion mode: Negative

compound: CC(=O)Nc1ccc(C)c(Cl)c1 [N-(3-Chloro-4-methylphenyl)acetamide]
readout-units: Å²
collision cross section in nitrogen: 138.2
--
compound: COC(=O)Nc1nc2cc(Sc3ccccc3)ccc2[nH]1
readout-units: Å²
collision cross section in nitrogen: 174.9
--
compound: O=C(Nc1ccccc1)c1cc2ccccc2cc1O [3-Hydroxy-2-naphthanilide]
readout-units: Å²
collision cross section in nitrogen: 160.7
--
compound: CCCN(CCC)c1c([N+](=O)[O-])cc(C(F)(F)F)cc1[N+](=O)[O-]
readout-units: Å²
collision cross section in nitrogen: 169.2
--
compound: O=C(O)CCc1ccccc1 [Hydrocinnamic acid]
readout-units: Å²
collision cross section in nitrogen: 139
--
compound: O=c1[nH]c(=O)n([C@H]2CCCO2)cc1F [(R)-Tegafur]
readout-units: Å²
collision cross section in nitrogen: 142.2
--
compound: CCCCCCCCC(=O)O
readout-units: Å²
collision cross section in nitrogen: 146.2
--
compound: O=C(O)CCCCCCCCC(=O)O
readout-units: Å²
collision cross section in nitrogen: 144.6
--
compound: Oc1ccc(-c2ccccc2)cc1Cl [3-Chloro[1,1′-biphenyl]-4-ol]
readout-units: Å²
collision cross section in nitrogen: 143.8
--
compound: COc1cc2ncnc(Nc3cccc(Cl)c3)c2cc1OC
readout-units: Å²
collision cross section in nitrogen: 177.1
--
compound: CC(=O)Nc1nnc(S(N)(=O)=O)s1 [Acetazolamide]
readout-units: Å²
collision cross section in nitrogen: 137.8
--
compound: Cc1ccccc1N=Nc1ccc(NC(=O)c2ccnn2C)c(C)c1
readout-units: Å²
collision cross section in nitrogen: 190.8
--
compound: CCCN(CCC)c1c([N+](=O)[O-])cc(C(C)C)cc1[N+](=O)[O-]
readout-units: Å²
collision cross section in nitrogen: 175.1
--
compound: C[C@]12CC[C@@H]3c4ccc(O)cc4CC[C@H]3[C@@H]1C[C@@H](O)[C@@H]2O
readout-units: Å²
collision cross section in nitrogen: 178.1
--
compound: Oc1ccc(Cl)cc1Cc1ccccc1
readout-units: Å²
collision cross section in nitrogen: 149.3
--
compound: O=C(O)c1ccc2c(c1)nc(C(=O)NC1CCN(C3CC3)CC1)n2Cc1cc(-c2ccc(Cl)s2)on1
readout-units: Å²
collision cross section in nitrogen: 249.7
--
compound: CCNS(=O)(=O)C(F)(F)C(F)(F)C(F)(F)C(F)(F)C(F)(F)C(F)(F)C(F)(F)C(F)(F)F [N-Ethylperfluorooctane sulfonamide]
readout-units: Å²
collision cross section in nitrogen: 180.4
--
compound: CCCN(CCC)S(=O)(=O)c1ccc(C(=O)O)cc1
readout-units: Å²
collision cross section in nitrogen: 172.9

====

test-summary: collision cross section in nitrogen (drift tube, single-field); higher = larger gas-phase ion size
condition-details: ion type: [M+H]; ion source: APCI; ion mode: Positive
Counter-ions that a name gives are not always drawn.
collision cross section in nitrogen reference

compound: Cc1cccc(Nc2ccccc2)c1 [3-Methyl-N-phenylaniline]
collision cross section in nitrogen: 143.2 Å²
//
compound: CC(C)(C)c1csc(-c2cc3cc(OCc4ccccc4CC(=O)O)ccc3o2)n1
collision cross section in nitrogen: 211.8 Å²
//
compound: CN(C)CCC=C1c2ccccc2CCc2ccccc21 [Amitriptyline hydrochloride]
collision cross section in nitrogen: 166.8 Å²
//
compound: CC(CN1c2ccccc2Sc2ccccc21)N(C)C (centres undefined) [Promethazine hydrochloride]
collision cross section in nitrogen: 163.3 Å²
//
compound: CC(Cc1ccc(OCC(=O)O)cc1)NCC(O)c1csc(C(F)(F)F)n1 (centres undefined)
collision cross section in nitrogen: 181.1 Å²
//
compound: CN(C)CCOCCN(C)CCO [2-[{2-[2-(Dimethylamino)ethoxy]ethyl}(methyl)amino]ethanol]
collision cross section in nitrogen: 138.5 Å²
//
compound: COC(=O)c1c(C(F)F)nc(C(F)(F)F)c(C2=NCCS2)c1CC(C)C [Thiazopyr]
collision cross section in nitrogen: 183.2 Å²
//
compound: Nc1ccc(Oc2cccc(Oc3ccc(N)cc3)c2)cc1 [1,3-Phenylenedi(4-aminophenyl ether)]
collision cross section in nitrogen: 167.2 Å²
//
compound: CCCCCCCCOCCCN [3-(Octyloxy)propan-1-amine]
collision cross section in nitrogen: 156.9 Å²
